Target: T1, CD27 expressed on the cell surface (HT1080_CD27 cells) (human, UniProt P26842 20-260)
T1 construct: whole, on cells; also called K562_CD27
T1 sequence (looked up): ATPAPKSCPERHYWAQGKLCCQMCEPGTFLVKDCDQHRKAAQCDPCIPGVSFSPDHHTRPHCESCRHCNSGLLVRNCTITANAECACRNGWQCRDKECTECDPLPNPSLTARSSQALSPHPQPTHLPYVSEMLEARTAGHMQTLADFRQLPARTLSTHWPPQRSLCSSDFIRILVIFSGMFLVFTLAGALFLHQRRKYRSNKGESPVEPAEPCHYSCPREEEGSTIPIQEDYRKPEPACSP
Assay: cellular binding assay, HT1080_CD27 cells; also: test concentration or dose not given here
assay-readout: Cellular binding assay [RFU] (RFU)
Numbers only; they are read as RFU.

As a guide, the following entries are already answered.
binder="P018.S.02.A.F05 (antibody, V domains shown, V regions on human Ig constant parts; also called AB27_35) VH: QEQLVESGGDLVKPEGSLTLTCTASGFSFSSSYYMSWVRQAPGKGLEWIACIDTVDNYTYYASWAKGRFTISKTSSTTVSLQMTSLTAADTATYFCARERIAYNTDYFNLWGPGTLVTVSS VL: AQVLTQTPSPVSAAVGGTVTISCQSSQSLYNYNNLAWYQQKPGQPPKLLIYSASNLASGVPSRFGGSGSGTQFTLTISDLQSDDAATYYCQGYYSGAVYTFGGGTEVVVK" observed=307
binder="P018.S.03.A.B05 (antibody, V domains shown, V regions on human Ig constant parts; also called AB27_43) VH: QEQLEESGGDLVKPEGSLTLTCTASGFDLSSRYWICWVRQAPGKGLEWIGCIKTGFSNTWYASWATGRFTFSKASSTTVTLQMTSLTVADTATYFCARIAAAASASDDFRLWGPGTLVTVSS VL: AQVLTQTPSSVSAAVGGTVTISCQSSKSVYNKWLSWFQQKPGQPPKLLIYDASDLASGVPSRFKGSGSGTEFTLTISDVQSDDAATYFCLGHYDSSSDRFVFGGGTEVVVK" observed=206

Now consider the entry below.
Q) Identify the reported Cellular binding assay [RFU] for the following entry. P018.S.06.A.F03 (antibody, V domains shown, V regions on human Ig constant parts; also called AB27_108) VH: QSLEESGGDLVRPGASLTLTCTASGLSFSDRYWISWVRQAPGKGLEWIASIYTGSDGVADYATWAKGRVTISKTSSTTVTLQMTSLTAADTATYFCARDREYGSNTGVYSLWGPGTLVTVSS VL: DVLMTQTPSSVSPAVGGTVTIKCQASQNIYSNLAWYQQKPGQRPKLLVYDASNLEYGVPSRFKGSGSGTEYTLTISDLESADAANYYCQCTYYGNNYITFGGGTEVVVR
A) 304
